What MIC was measured for each of the following?
- System: Staphylococcus aureus
- measurement-protocol: Antibacterial activity against Staphylococcus aureus ATCC 31890
- Assay type: functional

## Task # get_value(readout='MIC', item= O=C1NC(=S)S/C1=C\c1ccc2ccccc2c1 )
## Result 0.5 µg/mL

## Task Follow-up entry: O=C1NC(=O)/C(=C/c2cccnc2)S1
## Result > 64 µg/mL

## Task Moving on to the next compound: CCCc1ccccc1NC(=O)[C@H](CC(C)C)NC(=O)c1ccc(/C=C2\SC(=S)NC2=O)cc1
## Result > 64 µg/mL

## Task Also check CCCc1ccccc1NC(=O)[C@H](C)NC(=O)c1ccc(/C=C2\SC(=S)NC2=O)cc1
## Result > 64 µg/mL

## Task Proceed to O=C1NC(=O)/C(=C/c2ccccc2)S1
## Result > 64 µg/mL

## Task Note, next up: CCCc1ccccc1NC(=O)[C@H](C)NC(=O)c1ccc(/C=C2\SC(=O)NC2=O)cc1
## Result > 64 µg/mL

## Task Would you mind doing O=C1NC(=S)S/C1=C\c1ccco1 as well?
## Result 16 µg/mL

## Task Now the compound CCCc1ccccc1NC(=O)[C@H](CO)NC(=O)c1ccc(/C=C2\SC(=O)NC2=O)cc1
## Result > 64 µg/mL

## Task Next compound: CCCc1ccccc1NC(=O)[C@H](Cc1ccccc1)NC(=O)c1ccc(/C=C2\SC(=S)NC2=O)cc1
## Result > 64 µg/mL

## Task What do we get for CCCc1ccccc1NC(=O)[C@H](Cc1ccc(O)cc1)NC(=O)c1ccc(/C=C2\SC(=S)NC2=O)cc1 ?
## Result > 64 µg/mL

## Task Moving on to CCCc1ccccc1OC[C@H](O)COc1ccc(/C=C2\SC(=S)NC2=O)cc1
## Result 16 µg/mL

## Task Same lookup for CCCc1ccccc1NC(=O)[C@H](COCc1ccccc1)NC(=O)c1ccc(/C=C2\SC(=S)NC2=O)cc1 , please.
## Result > 64 µg/mL

## Task Here is the next compound: CCCc1ccccc1NC(=O)[C@H](Cc1ccccc1)NC(=O)c1ccc(/C=C2\SC(=O)NC2=O)cc1
## Result > 64 µg/mL

## Task And for CCCc1ccccc1NC(=O)[C@H](CC(C)C)NC(=O)c1ccc(/C=C2\SC(=O)NC2=O)cc1 ?
## Result > 64 µg/mL

* * *

- System: Staphylococcus aureus
- measurement-protocol: Antibacterial activity against Staphylococcus aureus ATCC 31890
- Assay type: functional
For each entry below, report its MIC value.

## Task Field: MIC (Staphylococcus aureus). Entry: CCCc1ccccc1NC(=O)[C@H](COC(C)(C)C)NC(=O)c1ccc(/C=C2\SC(=S)NC2=O)cc1
## Result 16 µg/mL

## Task And the next one, CCCc1ccccc1OC[C@H](O)COc1ccc(/C=C2\SC(=O)NC2=O)cc1 ?
## Result > 64 µg/mL

## Task Proceed to O=C1NC(=S)S/C1=C\c1ccc(C(=O)O)cc1
## Result > 64 µg/mL

## Task Can you handle O=C1NC(=O)/C(=C/c2ccc(C(=O)O)cc2)S1 next?
## Result > 64 µg/mL

## Task Also, CCCc1ccccc1NC(=O)[C@H](CO)NC(=O)c1ccc(/C=C2\SC(=S)NC2=O)cc1 please.
## Result > 64 µg/mL

Cited source: ChEMBL document CHEMBL2016471
